Molecular target: IRAK4 (Homo sapiens)
Sequence (Q9NWZ3 whole entry): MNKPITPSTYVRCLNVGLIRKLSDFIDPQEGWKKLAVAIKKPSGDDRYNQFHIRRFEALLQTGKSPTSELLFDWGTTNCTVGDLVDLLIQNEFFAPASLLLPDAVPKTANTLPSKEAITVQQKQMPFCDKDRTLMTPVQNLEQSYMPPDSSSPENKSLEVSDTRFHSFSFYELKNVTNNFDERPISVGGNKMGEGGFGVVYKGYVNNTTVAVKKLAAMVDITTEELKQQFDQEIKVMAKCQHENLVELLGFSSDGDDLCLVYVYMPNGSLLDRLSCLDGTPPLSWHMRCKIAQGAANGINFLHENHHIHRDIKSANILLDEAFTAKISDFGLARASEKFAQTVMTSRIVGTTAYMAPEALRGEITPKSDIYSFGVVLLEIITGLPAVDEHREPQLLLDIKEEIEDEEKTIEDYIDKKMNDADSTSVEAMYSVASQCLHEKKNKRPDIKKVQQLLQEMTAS
pIC50: −log10 of the molar value.
// pIC50 lookup, one value per entry
measure.name: pIC50

>>> reported_value("CC#CCOC[C@H]1CCc2sc3ncnc(O[C@H]4CC[C@H](N(C)C)CC4)c3c21")
"> 5.30"
>>> reported_value("CN(C)[C@H]1CC[C@H](Oc2ncnc3sc4c(c23)[C@@H](CCc2ncco2)CC4)CC1")
"> 5.30"
>>> reported_value("CN[C@H]1CC[C@H](Oc2ncnc3sc4c(c23)[C@@H](CC(=O)NC[C@@H](C)O)CC4)CC1 (stereo in doubt)")
"4.70 to 5.30"
>>> reported_value("NC(=O)[C@@H](O)C[C@H]1CCc2sc3ncnc(O[C@H]4CC[C@H](N)CC4)c3c21")
"> 5.30"
>>> reported_value("CC[C@]1(N(C)C)CC[C@H](Oc2ncnc3sc4c(c23)[C@@H](CC(N)=O)CC4)CC1")
"> 5.30"
>>> reported_value("OC[C@@H]1CCc2sc3ncnc(N[C@H]4CC[C@H](N5CCOCC5)CC4)c3c2C1")
"> 5.30"
>>> reported_value("OCC[C@H]1CCc2sc3ncnc(O[C@H]4CC[C@H](N5CCOCC5)CC4)c3c21")
"> 5.30"
>>> reported_value("NC(=O)[C@H]1CCc2sc3ncnc(O[C@H]4CC[C@H](N5CCOCC5)CC4)c3c2C1")
"> 5.30"
>>> reported_value("COCCN(CCOC)[C@H]1CC[C@H](Oc2ncnc3sc4c(c23)[C@@H](CC(N)=O)CC4)CC1")
"> 5.30"
>>> reported_value("CN(C)[C@H]1CC[C@H](Oc2ncnc3sc4c(c23)[C@H](CC(=O)Nc2ccc(F)cn2)CC4)CC1")
"4.30 to 4.70"
>>> reported_value("CN[C@H]1CC[C@H](Oc2ncnc3sc4c(c23)[C@@H](CCC(N)=O)CCC4)CC1")
"> 5.30"
>>> reported_value("CN(C)[C@H]1CC[C@H](Nc2ncnc3sc4c(c23)C(CN2CCCC2)CC4)CC1 (some centres unmarked)")
"4.30 to 4.70"
>>> reported_value("OC[C@H]1CCc2sc3ncnc(N[C@H]4CC[C@H](N5CCOCC5)CC4)c3c2C1")
"> 5.30"
>>> reported_value("NC(=O)CC[C@H]1CCc2sc3ncnc(O[C@H]4CC[C@H](N5CCOCC5)CC4)c3c21")
"> 5.30"
>>> reported_value("CN(C)[C@H]1CC[C@H](Oc2ncnc3sc4c(c23)CC(CC(N)=O)CC4)CC1 (single isomer, unassigned)")
"> 5.30"
>>> reported_value("CN[C@H]1CC[C@H](Oc2ncnc3sc4c(c23)[C@@H](C[C@H]2NC(=O)NC2=O)CC4)CC1")
"> 5.30"
>>> reported_value("C#CCOC[C@H]1CCc2sc3ncnc(O[C@H]4CC[C@H](N(C)C)CC4)c3c21")
"> 5.30"
